Test: acute toxicity in mice
Details: mouse, in vivo, po, orally, suspended in 10% gum arabic solution, 6 days observation, method of Litchfield-Wilcoxon
Catalogue of molecules with associated LD50 at 144 h
parameter: LD50 at 144 h

[[record]]
molecule = "CCCOCCOc1cccc2cc(-c3nnn[nH]3)c(=O)oc12 [Ex. 4]"
parameter = "LD50 at 144 h"
result = "1500 to 2000 mg/kg"

[[record]]
molecule = "CC(C)COCCOc1cccc2cc(-c3nnn[nH]3)c(=O)oc12 [Ex. 7]"
parameter = "LD50 at 144 h"
result = "> 2000 mg/kg"

[[record]]
molecule = "CCOCCCCOc1cccc2cc(-c3nnn[nH]3)c(=O)oc12 [Ex. 9]"
parameter = "LD50 at 144 h"
result = "> 2000 mg/kg"

[[record]]
molecule = "CCOCCOCCOc1cccc2cc(-c3nn[nH]n3)c(=O)oc12 [Ex. 11]"
parameter = "LD50 at 144 h"
result = "> 2000 mg/kg"

[[record]]
molecule = "CC(C)OCCOc1cccc2cc(-c3nn[nH]n3)c(=O)oc12 [Ex. 5]"
parameter = "LD50 at 144 h"
result = "1500 mg/kg"

[[record]]
molecule = "CCOCCOc1cccc2cc(-c3nnn[nH]3)c(=O)oc12 [Ex. 3]"
parameter = "LD50 at 144 h"
result = "1500 mg/kg"

[[record]]
molecule = "C=CCOCCOc1cccc2cc(-c3nnn[nH]3)c(=O)oc12 [Ex. 10]"
parameter = "LD50 at 144 h"
result = "1500 to 2000 mg/kg"

[[record]]
molecule = "CCOCCCOc1cccc2cc(-c3nnn[nH]3)c(=O)oc12 [Ex. 8]"
parameter = "LD50 at 144 h"
result = "> 2000 mg/kg"

[[record]]
molecule = "O=c1oc2c(OCCOc3ccccc3)cccc2cc1-c1nnn[nH]1 [Ex. 12]"
parameter = "LD50 at 144 h"
result = "> 2000 mg/kg"

[[record]]
molecule = "COCCOc1cccc2cc(-c3nnn[nH]3)c(=O)oc12 [Ex. 2]"
parameter = "LD50 at 144 h"
result = "1500 to 2000 mg/kg"

[[record]]
molecule = "O=c1oc2c(OCCCO)cccc2cc1-c1nnn[nH]1 [Ex. 1]"
parameter = "LD50 at 144 h"
result = "> 2000 mg/kg"

[[record]]
molecule = "CCCCOCCOc1cccc2cc(-c3nnn[nH]3)c(=O)oc12 [Ex. 6]"
parameter = "LD50 at 144 h"
result = "> 2000 mg/kg"


The reported numbers originate from patent US4406908A.
